target: human BKαβ1 channels (Homo sapiens); construct: expressed in transfected cells; host or cells: CHO cells (G418 and hygromycin selection); experiment: BK current in CHO cells expressing human BKαβ1 (PatchXpress whole-cell patch clamp), EC100; assay type: cell-based; details: drug concentration causing 100% increase of BK current
Sequence (Q12791 whole entry): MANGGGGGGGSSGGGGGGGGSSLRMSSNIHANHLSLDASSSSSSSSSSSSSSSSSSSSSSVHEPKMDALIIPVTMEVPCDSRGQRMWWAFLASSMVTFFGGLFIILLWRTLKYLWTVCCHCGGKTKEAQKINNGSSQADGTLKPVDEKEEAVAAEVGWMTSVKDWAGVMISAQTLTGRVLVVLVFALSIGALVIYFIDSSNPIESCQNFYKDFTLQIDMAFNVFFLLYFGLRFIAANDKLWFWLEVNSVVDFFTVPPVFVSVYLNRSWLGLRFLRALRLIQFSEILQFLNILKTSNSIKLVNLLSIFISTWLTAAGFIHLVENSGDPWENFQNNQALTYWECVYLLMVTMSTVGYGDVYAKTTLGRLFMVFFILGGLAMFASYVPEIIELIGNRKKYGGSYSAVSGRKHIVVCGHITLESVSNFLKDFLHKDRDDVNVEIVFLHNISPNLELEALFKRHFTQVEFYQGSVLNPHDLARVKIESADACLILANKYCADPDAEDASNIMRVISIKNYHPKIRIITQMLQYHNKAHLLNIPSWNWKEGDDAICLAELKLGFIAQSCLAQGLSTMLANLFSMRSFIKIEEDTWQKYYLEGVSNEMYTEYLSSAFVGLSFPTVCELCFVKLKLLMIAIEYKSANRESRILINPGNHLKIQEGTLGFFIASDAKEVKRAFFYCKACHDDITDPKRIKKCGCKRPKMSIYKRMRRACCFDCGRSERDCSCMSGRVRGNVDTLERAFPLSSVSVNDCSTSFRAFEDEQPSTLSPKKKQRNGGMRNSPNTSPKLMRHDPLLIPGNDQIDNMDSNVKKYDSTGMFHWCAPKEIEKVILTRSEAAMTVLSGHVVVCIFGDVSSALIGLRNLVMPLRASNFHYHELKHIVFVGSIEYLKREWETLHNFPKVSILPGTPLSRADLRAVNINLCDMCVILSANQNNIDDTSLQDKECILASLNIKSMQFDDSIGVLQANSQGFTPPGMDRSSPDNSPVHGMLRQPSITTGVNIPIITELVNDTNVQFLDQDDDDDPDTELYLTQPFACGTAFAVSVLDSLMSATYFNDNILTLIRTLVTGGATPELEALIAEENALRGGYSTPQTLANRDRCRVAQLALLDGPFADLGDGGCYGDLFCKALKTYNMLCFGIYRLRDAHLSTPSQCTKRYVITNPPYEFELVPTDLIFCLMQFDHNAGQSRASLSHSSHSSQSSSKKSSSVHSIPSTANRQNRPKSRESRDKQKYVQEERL
Sequence (Q16558 whole entry partner): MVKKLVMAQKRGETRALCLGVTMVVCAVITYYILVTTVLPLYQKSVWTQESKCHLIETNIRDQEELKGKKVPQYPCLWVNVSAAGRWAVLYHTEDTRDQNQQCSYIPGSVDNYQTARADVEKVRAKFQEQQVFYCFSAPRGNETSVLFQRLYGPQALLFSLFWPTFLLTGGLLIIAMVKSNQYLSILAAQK
log10 of EC100 for assorted compounds
Friendly reminder: values = log10 of EC100, unit µM.

Solved entries (count: 3):
1. COc1ccc(C(C)=O)cc1-c1cc(OC2(C(=O)[O-])CC2)nc(-c2ccc(Cl)c(F)c2)n1.[Na+]    0.06
2. Cc1cc(C(F)(F)F)ccc1-c1cc(OC2(C(=O)O)CC2)nc(-c2ccc(F)cc2)n1    -0.85
3. CCc1ccc(F)cc1-c1cc(OC2(C(=O)O)CC2)nc(-c2ccc(F)cc2)n1    -0.26

What reported log10 of EC100 corresponds to `COCC1CCN(c2cc(OC3(C(=O)[O-])CC3)nc(-c3ccc(Cl)c(F)c3)n2)CC1.[Na+]` on human BKαβ1 channels (Homo sapiens)?
-0.60

What reported log10 of EC100 corresponds to `COCCOc1cc(F)ccc1-c1cc(OC2(C(=O)[O-])CC2)nc(-c2ccc(Cl)c(F)c2)n1.[Na+]` on human BKαβ1 channels (Homo sapiens)?
-0.57

What reported log10 of EC100 corresponds to `CCCOC1CCN(c2nc(-c3ccc(Cl)cc3)nc(OC3(C(=O)O)CC3)c2C)CC1` on human BKαβ1 channels (Homo sapiens)?
-0.39

What reported log10 of EC100 corresponds to `COc1ccccc1-c1cc(OC2(C(=O)[O-])CCCC2)nc(-c2ccc(Cl)c(F)c2)n1.[Na+]` on human BKαβ1 channels (Homo sapiens)?
-0.55

What reported log10 of EC100 corresponds to `O=C([O-])C1(Oc2cc(-c3ccc4c(c3)OCCO4)nc(-c3ccc(Cl)c(F)c3)n2)CC1.[Na+]` on human BKαβ1 channels (Homo sapiens)?
-0.92

What reported log10 of EC100 corresponds to `CC(C)(Oc1cc(-c2cccc3cccnc23)nc(-c2ccc(Cl)c(F)c2)n1)C(=O)[O-].[Na+]` on human BKαβ1 channels (Homo sapiens)?
-0.51

What reported log10 of EC100 corresponds to `COc1cc(-c2nc(-c3ccc(F)cc3)nc(OC3(C(=O)[O-])CC3)c2C)ccc1Cl.[Na+]` on human BKαβ1 channels (Homo sapiens)?
-0.89
